- System: NCI-H460 lung
- assayText: NCI tumour cell line growth inhibition, 48 h
This section presents compounds with their documented TGI values.
testReadout: TGI

C[n+]1ccccc1/C1=c2\cc/c([nH]2)=C(\c2cccc[n+]2C)C2=N/C(=C(/c3cccc[n+]3C)C3C=CC(N3)/C(c3cccc[n+]3C)=C3/C=CC1=N3)C=C2
> 100 µM
CC1=C(C#N)C(/C=C(\Cl)c2ccc(F)cc2)C(C#N)=C(C)N1
> 100 µM
N#C/C(=C\c1ccccc1)C(NO)Nc1ccccc1 (stereo not drawn)
> 100 µM

----------
- System: NCI-H23 lung
- assayText: NCI tumour cell line growth inhibition, 48 h
This section presents molecules with their documented GI50 values.
testReadout: GI50

O=C(Nc1ccc2c(c1)OCCO2)C(=O)c1c[nH]c2ccccc12
1440 nM
COc1ccc2nc3cccc([N+](=O)[O-])c3c(NCCNCCN(C)C)c2c1
1720 nM
Cc1nc(Sc2nc3ccc([N+](=O)[O-])cc3s2)sc1C
1030 nM
COc1cc2nc(-c3cccc4cccnc34)nc(NC3CCN(Cc4ccccc4)CC3)c2cc1OC
1370 nM
CC(C)(C)c1nc(-c2cccc(NS(=O)(=O)c3c(F)cccc3F)c2F)c(-c2ccnc(N)n2)s1
10300 nM
COc1cc(NC(C)CCCNC(C)C)c2ncccc2c1OC (configuration not stated)
> 100000 nM
C=C(CN1c2ccccc2Sc2ccccc21)c1ccc(C(=O)Nc2ccccc2N)cc1
> 100000 nM

----------
- System: CAKI-1 renal
- assayText: NCI tumour cell line growth inhibition, 48 h
This section presents compounds with their documented GI50 values.
testReadout: GI50

CN1CCN(CCCOc2cccc3nc(Nc4ccc(F)c(F)c4)ccc23)CC1
4.45 µM
COc1cc(NC(C)CCCNC(C)C)c2ncccc2c1OC (stereo unspecified)
> 100 µM
O=C(/C=C\n1cnc(-c2cc(C(F)(F)F)cc(C(F)(F)F)c2)n1)N1CC(F)(F)C1
0.288 µM
Cn1cncc1-c1c(F)cncc1NC(=O)c1c(N)nn2cc(F)cnc12
1.45 µM
O=C(Oc1ccccc1)C(Br)C(Br)c1ccccc1 (stereo unspecified)
1.65 µM
Cc1c(C)c2c(c(C)c1OCC(=O)O)CC[C@@](C)(CCC[C@@H](C)CCC[C@@H](C)CCCC(C)C)O2
76.7 µM

----------
- Tested on: T-47D breast
- assayText: NCI tumour cell line growth inhibition, 48 h
This section presents molecules with their documented TGI values.
testReadout: TGI (µM)

C=C1C(=O)O[C@H]2[C@H]1CC/C(COC(=O)NCCc1cccc(OC)c1)=C\CC[C@@]1(C)O[C@@H]21
4.03
Cc1c(C)c2c(c(C)c1OCC(=O)O)CC[C@@](C)(CCC[C@@H](C)CCC[C@@H](C)CCCC(C)C)O2
171
COc1ccc2oc(C(=O)N3CC(CCl)c4ccc(N)cc43)cc2c1 (configuration not stated)
3.87

----------
This section presents compounds with their documented TGI values.
- Tested on: COLO 205 colon
- assayText: NCI tumour cell line growth inhibition, 48 h
testReadout: TGI

OC12CCC3(O)c4ccccc4C3C1c1ccccc12 (stereo unspecified)
> 100 µM
CN(C)N=Nc1ccc2[nH]c(=O)[nH]c2c1
> 100 µM
Cc1cn(C2OC(CO)C(O)C2F)c(=O)[nH]c1=O (stereo unspecified)
> 100 µM
C/C(O)=C(\C=NC(=S)c1ccncc1)C(=O)Nc1ccccc1C
> 100 µM
CCc1nn2ncccc2c1-c1ccnc(NC2CC2)n1
> 25 µM
O=c1[nH]c(=O)n(C2CC(O)C(CO)O2)cc1COCC(F)(F)F (stereo unspecified)
> 100 µM

----------
- Test system: HOP-92 NSCLC
- assayText: NCI tumour cell line growth inhibition, 48 h
testReadout: GI50

C=C(CN1c2ccccc2Sc2ccccc21)c1ccc(C(=O)Nc2ccccc2N)cc1
> 47900 nM
COc1cc(CN(c2ccc(C)cc2)C2OC(=O)c3ccccc32)cc(OC)c1OC (centres undefined)
449 nM
CCOc1ccc(C(C)=O)cc1NC(=O)c1cccc(-c2nnn(CC)n2)c1
418 nM
CCC[CH2][Sn]([CH2]CCC)([CH2]CCC)[O]C(=O)C(OC)c1ccccc1 (centres undefined)
27.4 nM

----------
- Tested on: SNB-75 CNS
- assayText: NCI tumour cell line growth inhibition, 48 h
This section presents molecules with their documented TGI values.
testReadout: TGI

COc1cc(OC)c(C2(c3c(OC(C)C)c(=O)c3=O)SCCCS2)cc1OC
> 100 µM
CCOC(=O)c1nc2cc(C(F)(F)F)ccc2nc1Oc1ccc(F)cc1
> 100 µM
CCOc1ccc(N=Cc2ccnc3ccccc23)cc1
> 92.2 µM
Cn1cc(C2=C(c3ccccc3C(F)(F)F)C(=O)NC2=O)c2ccccc21
> 25 µM
CCN(CC)CCN1C(=O)C(=O)N(c2cccc3ccccc23)C1=O
> 10 µM
C/C(O[Si](C(C)C)(C(C)C)C(C)C)=C(\C)C(=O)N(C)c1ccccc1Cl
> 100 µM

----------
This section presents molecules with their documented TGI values.
- Test system: HS 578T breast
- assayText: NCI tumour cell line growth inhibition, 48 h
testReadout: TGI

CN(C)c1ccc(/C=C(\NC(=O)c2ccccc2)C(=O)NC(Cc2c[nH]c3ccccc23)C(=O)O)cc1 (stereo not given)
> 100 µM
Cc1cccc(Nc2cc(Cl)nc(SCC(=O)O)n2)c1C
> 100 µM
CCOc1ccc(C(C)=O)cc1NC(=O)c1cccc(-c2nnn(CC)n2)c1
> 100 µM
COc1cccc(NC(=O)c2sc3nc4c(cc3c2N)C(O)CCC4)c1 (stereo not given)
> 49.9 µM
C1=NCCOCCN=Cc2ccc(cc2)OCc2cccc(n2)COc2ccc1cc2
> 100 µM

----------
- Test system: U251 CNS
- assayText: NCI tumour cell line growth inhibition, 48 h
testReadout: TGI

CCOC(=O)C1=C(C(=O)OCC)C2(c3ccccc3)N(O1)c1ccccc1C2(C)C (stereo not drawn)
> 100 µM
CCN(CC)c1ccc(/C=N/NC(=O)CSc2nc3ccccc3c(=O)n2Cc2ccc(S(N)(=O)=O)cc2)c(O)c1
> 100 µM
COc1cc(NC(C)CCCNC(C)C)c2ncccc2c1OC (stereo not drawn)
> 100 µM

----------
- System: EKVX NSCLC
- assayText: NCI tumour cell line growth inhibition, 48 h
This section presents molecules with their documented TGI values.
testReadout: TGI

CC(=O)O[C@H](C[C@H](C(C)C)N(C)C(=O)[C@@H](NC(=O)[C@H]1CCCCN1C)C(C)C)c1cccc(C(=O)N[C@@H](Cc2ccccc2)C[C@H](C)C(=O)O)n1
> 25 µM
COc1cc2c(c(OC)c1OC)-c1ccc(SC)c(=O)cc1C(CC(=O)Oc1cccc(F)c1)C2 (stereo unspecified)
> 100 µM
COc1ccc2oc(C(=O)N3CC(CCl)c4ccc(N)cc43)cc2c1 (stereo unspecified)
4 µM
CNC(=S)/C(C#N)=C(\N)N1CCCC1
> 100 µM
CC[C@@H](O)C[C@H]1CCC[C@@]2(C[C@@H]3OC(=O)/C=C/[C@@](C)(O)[C@@H](O)[C@H](C)[C@@H](O)[C@H](OC4CCC(N(C)C)C(C)O4)[C@@H](O)[C@](C)(O)CCCCC/C=C/[C@@H]4CC(C)(C)O[C@@]4(O)C[C@H](O2)[C@H]3C)O1 (stereo partly specified)
19.1 µM
CCOc1ccc(C(C)=O)cc1NC(=O)c1cccc(-c2nnn(CC)n2)c1
> 100 µM

----------
- Tested on: MALME-3M melanoma
- assayText: NCI tumour cell line growth inhibition, 48 h
testReadout: TGI

CCn1c(CSc2nc(-c3ccccc3)c(-c3ccccc3)[nH]2)n[nH]c1=S
> 100000 nM
COC(=O)C1(O)C(c2ccccc2)NC2(C)CCCC21 (stereo not given)
> 100000 nM
COC[C@H]1C(=O)NCC(=O)N2N=CCC[C@H]2C(=O)N(O)[C@H](C)C(=O)O[C@@H](C(C)C)[C@H](NC(=O)[C@@](C)(O)[C@]2(O)CC[C@@H](CC(C)C)[C@H](C)O2)C(=O)N2NCCC[C@@H]2C(=O)N1O
30.7 nM
COC(=O)CC(=O)NCC1=CCC(=O)CC1
> 100000 nM
CN(C)CCCCCNc1c2ccccc2nc2cccc([N+](=O)[O-])c12
5.06 nM

----------
- Test system: SK-MEL-5 melanoma
- assayText: NCI tumour cell line growth inhibition, 48 h
testReadout: TGI (µM)

Cn1cncc1-c1c(F)cncc1NC(=O)c1c(N)nn2cc(F)cnc12
2.48
COc1cc(C2c3cc4c(cc3[C@@H](N(C)c3ccc(N(C)C)cc3)C3COC(=O)C23)OCO4)cc(OC)c1O (stereo not given in full)
13.7
Cc1ccc(SCC(OCn2cnc3c(Cl)nc(N)nc32)[C@H](C)F)cc1 (stereo not given in full)
47.6
CCN(CC)c1ccc(N=Nc2ccc(-c3nc4cccn(C)c-4n3)cc2)cc1
16.8
CC/C(Cc1ccccc1)=C(/c1ccc(O)cc1)c1ccc(OCCN2CCCC2)cc1
3.08
C=CCn1c(-c2ccc(Cl)cc2)csc1=Nc1ccccc1OC
8.11
O=[N+]([O-])C(C(Cl)=C(Cl)Cl)=C(n1cncn1)n1cncn1
31.8
O=C1NC(=Nc2ccccc2)C(=Nc2ccccc2)N1c1ccccc1
29.7
CCCCCCCCCC(=O)NC(Cc1ccc(O)cc1)C(=O)NCCCNCCCCNCCCNC(=O)[C@@H](N)CCCN=C(N)N (stereo not given in full)
35.7
N#Cc1c(-c2ccccc2)cc(Nc2ccc(Cl)cc2)n2c1nc1ccccc12
4.98
